Provenance of the data: paper PMC10866072

# testTarget: UniProtKB P42338
# Sequence (P42338 whole entry, species assumed): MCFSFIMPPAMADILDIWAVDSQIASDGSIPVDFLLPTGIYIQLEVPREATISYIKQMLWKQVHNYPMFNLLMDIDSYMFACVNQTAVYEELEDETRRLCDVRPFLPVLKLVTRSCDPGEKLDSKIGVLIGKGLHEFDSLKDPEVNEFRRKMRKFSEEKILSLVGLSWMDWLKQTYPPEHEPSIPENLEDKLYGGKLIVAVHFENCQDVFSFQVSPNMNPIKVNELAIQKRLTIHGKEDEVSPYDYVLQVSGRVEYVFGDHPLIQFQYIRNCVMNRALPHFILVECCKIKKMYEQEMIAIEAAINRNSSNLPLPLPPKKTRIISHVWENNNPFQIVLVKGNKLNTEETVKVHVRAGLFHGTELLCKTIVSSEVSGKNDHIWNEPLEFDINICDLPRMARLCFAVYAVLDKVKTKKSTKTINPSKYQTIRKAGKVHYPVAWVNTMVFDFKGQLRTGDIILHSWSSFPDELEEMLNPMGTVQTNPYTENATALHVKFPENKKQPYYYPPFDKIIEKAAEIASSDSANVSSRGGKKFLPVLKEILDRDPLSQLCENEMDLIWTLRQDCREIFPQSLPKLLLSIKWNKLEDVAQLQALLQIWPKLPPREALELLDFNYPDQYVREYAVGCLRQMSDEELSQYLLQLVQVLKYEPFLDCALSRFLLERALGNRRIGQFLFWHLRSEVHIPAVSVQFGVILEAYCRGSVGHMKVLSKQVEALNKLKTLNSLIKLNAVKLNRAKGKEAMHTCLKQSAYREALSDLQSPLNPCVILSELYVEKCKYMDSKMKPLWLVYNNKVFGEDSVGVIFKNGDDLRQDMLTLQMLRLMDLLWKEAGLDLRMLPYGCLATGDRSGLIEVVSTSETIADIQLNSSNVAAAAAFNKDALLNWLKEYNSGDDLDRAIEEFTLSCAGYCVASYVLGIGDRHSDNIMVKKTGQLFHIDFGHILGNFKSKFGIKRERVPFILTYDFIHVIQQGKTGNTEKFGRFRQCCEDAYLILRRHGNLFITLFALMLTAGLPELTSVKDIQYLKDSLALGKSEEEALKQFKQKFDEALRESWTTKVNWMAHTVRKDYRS
# Sequence (P27986 whole entry partner, species assumed): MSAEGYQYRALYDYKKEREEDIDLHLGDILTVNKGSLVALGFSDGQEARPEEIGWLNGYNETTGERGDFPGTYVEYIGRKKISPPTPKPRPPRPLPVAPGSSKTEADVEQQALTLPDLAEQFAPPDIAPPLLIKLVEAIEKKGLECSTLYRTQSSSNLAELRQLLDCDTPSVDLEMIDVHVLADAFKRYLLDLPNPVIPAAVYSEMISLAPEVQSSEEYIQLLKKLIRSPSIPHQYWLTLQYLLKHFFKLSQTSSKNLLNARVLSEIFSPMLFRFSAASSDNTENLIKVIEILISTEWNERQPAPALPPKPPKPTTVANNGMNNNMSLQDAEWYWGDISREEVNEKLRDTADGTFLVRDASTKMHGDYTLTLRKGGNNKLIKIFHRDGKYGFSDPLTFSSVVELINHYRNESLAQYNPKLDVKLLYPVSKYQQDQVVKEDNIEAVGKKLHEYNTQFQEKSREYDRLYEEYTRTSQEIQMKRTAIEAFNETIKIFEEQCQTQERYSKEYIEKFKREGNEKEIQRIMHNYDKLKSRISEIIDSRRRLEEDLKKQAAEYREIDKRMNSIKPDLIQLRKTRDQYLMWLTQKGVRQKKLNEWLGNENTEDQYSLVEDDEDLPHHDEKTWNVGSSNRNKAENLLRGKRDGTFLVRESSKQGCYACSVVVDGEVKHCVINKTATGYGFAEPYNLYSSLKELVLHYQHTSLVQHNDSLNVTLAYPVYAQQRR
measure: IC50 (nM)
Please give a number only; it is taken to be in nM.

Observed IC50 on UniProtKB P42338, entry N#Cc1c(N)nc(S)nc1-c1ccc(Cl)cc1Cl , equals 550

###

# Test system: BT-549
# Format: cell-based
# details: Homo sapiens, one dose 10^-5 M, 48 h
measure: % cell growth at 10 µM (%)
Please give a number only; it is taken to be in %.

# annotated cases, reported % cell growth at 10 µM shown
>>> reading("CN(C)c1ccc(-c2nc(S)nc(N)c2-c2ncn[nH]2)cc1 [Compound 5a]")
98.1
>>> reading("CN(C)c1ccc(-c2nc(S)nc(N)c2C(=N)NN=Cc2ccc(Cl)cc2Cl)cc1 [Compound 4f]")
119
>>> reading("COc1ccc(C=NNC(=N)c2c(N)nc(S)nc2-c2ccc(Cl)cc2Cl)cc1 [Compound 4p]")
95.6
>>> reading("N=C(NN=Cc1ccc(Cl)cc1Cl)c1c(N)nc(S)nc1-c1ccc(Cl)cc1Cl [Compound 4r]")
91.6
>>> reading("CN(C)c1ccc(-c2cc([N+](=O)[O-])ccc2C=NNC(=N)c2cnc(S)nc2N)cc1 [Compound 4c]")
112
>>> reading("N=C(NN=Cc1ccc(Cl)cc1)c1c(N)nc(S)nc1-c1ccc(Cl)cc1Cl [Compound 4n]")
92.6

Reported % cell growth at 10 µM ( N=C(NN=Cc1ccc([N+](=O)[O-])cc1)c1c(N)nc(S)nc1-c1ccc(Cl)cc1Cl [Compound 4o] ) = 75.7

Reported % cell growth at 10 µM ( N#Cc1c(N)nc(S)nc1-c1ccc(Cl)cc1Cl [Compound 1c] ) = 42.1

Reported % cell growth at 10 µM ( N=C(NN=Cc1ccc(Br)cc1)c1c(N)nc(S)nc1-c1ccc(Cl)cc1Cl [Compound 4q] ) = 97.7

Reported % cell growth at 10 µM ( CN(C)c1ccc(-c2nc(S)nc(N)c2C(=N)NN=Cc2ccc(Cl)cc2)cc1 [Compound 4b] ) = 95.7
